Hey, just so you know, these numbers are from PubChem BioAssay (Tox21).

target: Aromatase (Homo sapiens) (UniProt P11511); assay: qHTS assay to identify aromatase inhibitors (AID 743083); conditions: MCF-7 aro ERE, testosterone-driven ERE luciferase, 24 h; series mostly up to 70.3 µM; note: nearly all actives have a fitted effect of over 55% in size
Sequence (P11511 whole entry, looked up): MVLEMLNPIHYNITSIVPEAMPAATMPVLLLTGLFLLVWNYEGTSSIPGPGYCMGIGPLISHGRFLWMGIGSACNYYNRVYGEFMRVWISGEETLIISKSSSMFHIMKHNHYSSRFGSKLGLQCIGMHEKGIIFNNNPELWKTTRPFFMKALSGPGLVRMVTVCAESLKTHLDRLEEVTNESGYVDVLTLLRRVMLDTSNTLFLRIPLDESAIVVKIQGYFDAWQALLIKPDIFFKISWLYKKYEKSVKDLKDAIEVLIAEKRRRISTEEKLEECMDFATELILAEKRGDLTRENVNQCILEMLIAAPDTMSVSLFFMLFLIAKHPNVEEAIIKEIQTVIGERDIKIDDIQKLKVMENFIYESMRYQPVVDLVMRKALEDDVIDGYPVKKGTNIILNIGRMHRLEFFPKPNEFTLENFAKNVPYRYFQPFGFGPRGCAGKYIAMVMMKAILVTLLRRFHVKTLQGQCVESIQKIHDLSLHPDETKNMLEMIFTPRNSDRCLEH
Inconclusive results are not listed. Activity calls are given as the source filed them. Calls come from the whole dose curve; as a rule, active = well fitted inhibition curve with a large enough effect in the repeat runs; inconclusive = weak or mixed curves; inactive = no such curve, though single readings can be large or run the other way.
Respond using exactly one of the listed classes: active, inactive

Solved cases below.
> print(dat)
                                   molecule  assigned.category
1                 COC(=O)NCCC[Si](OC)(OC)OC           inactive
2  Cc1cccc(C)c1NC(=O)CN1CCN(CCCC(c2ccc(F)cc2)c2ccc(F)cc2)CC1           inactive
3            CCCCOc1ccc(C(=O)CCN2CCCCC2)cc1           inactive
4  C[C@@H]1CC[C@H]2C(C)(C)[C@H]3C[C@@]12CC[C@@]3(C)O           inactive
5  CSc1ccc2c(c1)N(CCC1CCCCN1C)c1ccccc1S2 (configuration not stated)             active
6                        CCCCCCCCCCCCCCNCCO           inactive
7  C=C[C@](C)(O)CC[C@@H]1[C@@]2(C)CCCC(C)(C)[C@@H]2CC[C@@]1(C)O             active
8            CN(Cc1cc(Br)cc(Br)c1N)C1CCCCC1           inactive

# fetch the recorded call for CC1CCCNC1 (configuration not stated) here inactive

For this molecule, state the assay outcome: CN(C)CCCN1c2ccccc2Sc2ccc(C(F)(F)F)cc21 inactive

GET /call?item= CCN(CC)CCCN(c1ccccc1)C1Cc2ccccc2C1 returns the recorded outcome of this test. active

Test call, this molecule: C[Si](C)(C)Cl inactive

Check the results log: what was the call for Oc1ccc(-c2ccc(O)cc2)cc1 ? inactive

Please let me know the test result on file for CC1(C)C(=O)N(Br)C(=O)N1Br . inactive

====

assay: qHTS assay to identify small molecule that activate the aryl hydrocarbon receptor (AhR) signaling pathway - cell viability counter screen (AID 743086); settings: HepG2-AhR-luc viability, CellTiter-Fluor, 24 h; series mostly up to 70.3 µM; note: nearly all actives have a fitted effect of over 45% in size
Records with an inconclusive call do not appear. The source made the active and inactive calls. Calls follow the shape of the dose curve; as a rule, active = well fitted cell-killing curve with a large enough effect in the repeat runs; inconclusive = weak or mixed curves, or effect the other way; inactive = flat fitted curve, though single readings scatter.
// classify into class 1 for active, class 0 for inactive

> print(dat)
                       cpd.smiles  assigned.category
1  CN(Cc1cc(Br)cc(Br)c1N)C1CCCCC1            class 0

Dear colleague, could you share the recorded outcome for C[C@@]12C(=O)OC(=O)[C@]1(C)C1CCC2O1 when you have a moment? class 1

Check the results log: what was the call for O=Cc1ccc(F)cc1 ? class 0

Any idea what this test logged for CC(C)=C1CC[C@@H](C)CC1=O ? class 0

====

assay: qHTS RealTime-Glo MT Cell Viability Assay in HEK293 cells - 16 hour (AID 1224872); details: RealTime-Glo luminescence; series mostly up to 76.8 µM; note: nearly all actives have a fitted effect of over 50% in size
Results filed as inconclusive are left out. Active and inactive are the calls of the source. Calls come from the whole dose curve; as a rule, active = well fitted cell-killing curve with a large enough effect in the repeat runs; inconclusive = weak or mixed curves, or effect the other way; inactive = flat fitted curve, though single readings scatter.
A correct response names exactly one class from active, inactive

Consider the following illustrative entries.
> print(dat)
                                   compound  assigned.category
1             O=C[C@H](O)[C@H](O)[C@H](O)CO           inactive
2                 CC1(C)C(=O)N(Br)C(=O)N1Br           inactive
3  COc1cc(C(=O)NS(=O)(=O)c2ccccc2C)ccc1Cc1cn(C)c2ccc(NC(=O)OC3CCCC3)cc12           inactive

Please let me know the test result on file for Cc1oc(-c2ccccc2)nc1CCOc1ccc(C[C@H](Nc2ccccc2C(=O)c2ccccc2)C(=O)O)cc1 . inactive

Dear colleague, could you share the recorded outcome for CC(NCCC(c1ccccc1)c1ccccc1)c1ccccc1 (stereo not drawn) when you have a moment? active

====

test: qHTS assay to identify small molecule that activate the aryl hydrocarbon receptor (AhR) signaling pathway - cell viability counter screen (AID 743086); settings: HepG2-AhR-luc viability, CellTiter-Fluor, 24 h; series mostly up to 70.3 µM; note: nearly all actives have a fitted effect of over 45% in size
Records with an inconclusive call do not appear. The source made the active and inactive calls. Calls follow the shape of the dose curve; as a rule, active = well fitted cell-killing curve with a large enough effect in the repeat runs; inconclusive = weak or mixed curves, or effect the other way; inactive = flat fitted curve, though single readings scatter.
A correct response names exactly one class from t for active, f for inactive

> print(dat)
                                   compound  assigned.category
1                         Cn1cnc2ncnc(N)c21                  f
2    O=C(Oc1ccccc1)c1cccc(C(=O)Oc2ccccc2)c1                  f
3                               COC(=O)CC#N                  f
4                        O=C(O)CCCCCCC(=O)O                  f
5  CCCCCCC(C)Nc1ccc(Nc2ccccc2)cc1 (configuration not stated)                  f

Look up the recorded call for COC(=O)NCCC[Si](OC)(OC)OC in this test. f

Assay result, entry CNCC[C@H](Oc1cccc2ccccc12)c1cccs1 — outcome? f

====

assay: qHTS RealTime-Glo MT Cell Viability Assay in HepG2 cells - 40 hour (AID 1224870); conditions: RealTime-Glo luminescence; series mostly up to 76.8 µM; note: nearly all actives have a fitted effect of over 50% in size; note: potency is the fitted concentration of half-maximal effect
Inconclusive results are not listed. Active and inactive are the calls of the source. Calls come from the whole dose curve; as a rule, active = well fitted cell-killing curve with a large enough effect in the repeat runs; inconclusive = weak or mixed curves, or effect the other way; inactive = flat fitted curve, though single readings scatter.
Endpoint Label: Potency

Cpd Smiles	Potency
Oc1ccc(-c2ccc(O)cc2)cc1	inactive
COc1ccc(-n2nc(CCC(=O)N(C)O)cc2-c2ccc(Cl)cc2)cc1	inactive
CC1=C(/C=C/C(C)=C/C=C/C(C)=C/C(=O)Nc2ccc(O)cc2)C(C)(C)CCC1	inactive
C=C(C)CCCC	inactive
CCN(CC)c1cccc(C)c1	inactive
CS(C)(=O)=O	inactive
C[C@H]1O[C@@H](O[C@H]2[C@@H](O)C[C@H](O[C@H]3[C@@H](O)C[C@H](O[C@H]4CC[C@@]5(C)[C@H](CC[C@@H]6[C@@H]5C[C@@H](O)[C@]5(C)[C@@H](C7=CC(=O)OC7)CC[C@]65O)C4)O[C@@H]3C)O[C@@H]2C)C[C@H](O)[C@@H]1O	inactive
CCCCCCCCCCCCOC(=O)c1cc(O)c(O)c(O)c1	54.9 µM (active)

Parameters: items (list). Returns: Potency for each item.
1. O=C1NCN(c2ccccc2)C12CCN(CCCC(c1ccc(F)cc1)c1ccc(F)cc1)CC2
2. C[C@]12CC[C@H]3C(=CCc4cc(O)ccc43)[C@@H]1CCC2=O

1: 6.74 µM (active); 2: inactive

====

experiment: qHTS RealTime-Glo MT Cell Viability Assay in HEK293 cells - 32 hour (AID 1224868); conditions: RealTime-Glo luminescence; series mostly up to 76.8 µM; note: nearly all actives have a fitted effect of over 50% in size
Results filed as inconclusive are left out. Activity calls are given as the source filed them. The call rests on the fitted dose curve; in most records, active means well fitted cell-killing curve with a large enough effect in the repeat runs; inconclusive means weak or mixed curves, or effect the other way; inactive means flat fitted curve, though single readings scatter.
Choose the fitting class; nothing outside active, inactive is accepted.

Example entries begin here.
> print(dat)
                                   compound  assigned.category
1    CC(C)=CC1CC(C)CCO1 (centres undefined)           inactive
2  Cc1nc(Nc2ncc(C(=O)Nc3c(C)cccc3Cl)s2)cc(N2CCN(CCO)CC2)n1             active
3  Cc1ccc(-n2[nH]c(C)c(N=Nc3cccc(-c4cccc(C(=O)O)c4)c3O)c2=O)cc1C             active
4  O=C1NC2CCCCN2C12CCN(CCCN1c3ccccc3CCc3ccc(Cl)cc31)CC2 (centres undefined)             active

Short answer needed: outcome of this test for COc1nccnc1CC(C)C ? inactive

Call for entry C=CC/C=C/C/C=C/C/C=C/C : inactive

Please indicate how the test categorized CCCCCCCCCCCCCc1ccccc1 . inactive

What did the test return for O=S(=O)(O)CCCN1CCOCC1 ? inactive

Give the logged outcome of this assay for the following compound: CC1CCCNC1 (centres undefined) inactive

====

Assay: qHTS RealTime-Glo MT Cell Viability Assay in HEK293 cells - 24 hour (AID 1224886); note: nearly all actives have a fitted effect of over 50% in size
Conditions: RealTime-Glo luminescence; series mostly up to 76.8 µM
Text: National Center for Advancing Translational Sciences [NCATS] NIH Chemical Genomics Center [NCGC] U.S. Environmental Protection Agency [EPA] National Institutes of Environmental Health Sciences [NIEHS] National Toxicology Program [NTP] U.S. Food and Drug Administration [FDA] Measure of cell viability is critical in the cell-base assay. Analysis of cell viability is necessary for the characterization of cell responses to cytotoxic drugs and environmental stress. […]
Results filed as inconclusive are left out. Active and inactive are the calls of the source. The call rests on the fitted dose curve; in most records, active means well fitted cell-killing curve with a large enough effect in the repeat runs; inconclusive means weak or mixed curves, or effect the other way; inactive means flat fitted curve, though single readings scatter.
Assign a class; possible classes are active, inactive

> print(dat)
                              molecule  assigned.category
1  C[C@@]12C(=O)OC(=O)[C@]1(C)C1CCC2O1             active
2   CCN(CC)CCSC(=O)C(c1ccccc1)c1ccccc1           inactive
3           CCOC(/C=C(\C)CCC=C(C)C)OCC           inactive

Entry CC(C)(C)c1cc(/C=C2\SC(=N)NC2=O)cc(C(C)(C)C)c1O : call = ? active

For CCN(CC)CCOc1ccc(C(O)(Cc2ccc(Cl)cc2)c2ccc(C)cc2)cc1 (stereo not drawn) , what call appears in the results of this test? active

Which outcome was assigned to Cc1c(C(=O)O)cccc1[N+](=O)[O-] in this test? inactive

Recorded test call requested for [O]=[Zr] inactive

How did this test come out for CCCCC(CC)COC(=O)c1ccc(O)cc1 (stereo not drawn) ? active

For O=C1OC(OC(=O)c2cccnc2Nc2cccc(C(F)(F)F)c2)c2ccccc21 (stereo not drawn) , which call appears in the assay record? inactive
